system: HIV-1 BaL; test: Anti-HIV-1 activity in activated PBMC, p24 ELISA; assay type: cell-based; settings: activated PBMC infected with HIV-1 BaL, 5 days, mean ± SD
READOUT NAME: EC50 (µM)

• Nc1ncnc2c1ncn2[C@@H]1O[C@H](OCP(=O)(O)O)C=C1F = 8.5

// data source = patent US8951986B2
